MEASUREMENT_TARGET: Full-length USP19 (Homo sapiens, UniProt O94966)
Construct: Full-length USP19 was purchased from Boston Biochem (E-576); purchased Boston Biochem E-576
Sequence (O94966 whole entry): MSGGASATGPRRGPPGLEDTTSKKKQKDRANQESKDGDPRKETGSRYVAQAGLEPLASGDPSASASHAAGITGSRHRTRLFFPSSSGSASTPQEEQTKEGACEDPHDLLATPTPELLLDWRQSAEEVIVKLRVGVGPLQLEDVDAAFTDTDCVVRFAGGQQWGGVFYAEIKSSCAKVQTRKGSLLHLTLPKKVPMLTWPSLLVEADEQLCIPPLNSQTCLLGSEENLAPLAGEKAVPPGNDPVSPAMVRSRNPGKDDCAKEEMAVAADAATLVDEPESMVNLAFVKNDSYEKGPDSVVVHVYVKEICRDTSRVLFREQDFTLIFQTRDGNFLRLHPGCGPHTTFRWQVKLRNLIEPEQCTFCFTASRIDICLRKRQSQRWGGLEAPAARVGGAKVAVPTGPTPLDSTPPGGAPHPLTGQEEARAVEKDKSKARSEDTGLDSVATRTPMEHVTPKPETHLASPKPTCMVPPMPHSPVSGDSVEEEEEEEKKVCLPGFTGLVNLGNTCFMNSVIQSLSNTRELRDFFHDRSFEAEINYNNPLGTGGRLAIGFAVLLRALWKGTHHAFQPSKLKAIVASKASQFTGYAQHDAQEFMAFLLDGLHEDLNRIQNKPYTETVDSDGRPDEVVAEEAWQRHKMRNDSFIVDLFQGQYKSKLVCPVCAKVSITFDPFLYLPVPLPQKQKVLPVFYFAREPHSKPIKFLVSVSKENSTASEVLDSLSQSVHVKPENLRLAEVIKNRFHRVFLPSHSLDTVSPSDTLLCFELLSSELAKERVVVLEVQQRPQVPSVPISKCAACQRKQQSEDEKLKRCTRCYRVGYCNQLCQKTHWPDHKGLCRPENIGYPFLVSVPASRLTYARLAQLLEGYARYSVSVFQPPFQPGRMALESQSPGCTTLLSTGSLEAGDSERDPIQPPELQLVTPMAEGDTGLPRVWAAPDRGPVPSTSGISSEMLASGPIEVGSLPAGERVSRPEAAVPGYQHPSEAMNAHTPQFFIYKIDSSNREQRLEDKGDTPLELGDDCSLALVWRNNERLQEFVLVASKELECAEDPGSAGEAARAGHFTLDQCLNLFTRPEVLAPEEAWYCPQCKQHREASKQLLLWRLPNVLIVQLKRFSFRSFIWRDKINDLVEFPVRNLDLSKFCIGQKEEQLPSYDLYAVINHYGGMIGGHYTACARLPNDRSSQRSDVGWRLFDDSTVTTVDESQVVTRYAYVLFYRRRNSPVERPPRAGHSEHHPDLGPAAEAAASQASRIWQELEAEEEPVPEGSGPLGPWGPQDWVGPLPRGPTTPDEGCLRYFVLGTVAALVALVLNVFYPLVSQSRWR
ASSAY_INFO: USP19 fluorescence polarisation (FP) assay, Ubiquitin-Lys-TAMRA substrate
Format: biochemical
DETAILS: average of at least two duplicate experiments
MEASUREMENT_NAME: IC50

Sample answers from the record:
For Full-length USP19 (Homo sapiens, UniProt O94966), provide IC50 of CN[C@@H]1CCN(C(=O)N2CC[C@@H](Cn3cnc(-c4ccccc4C)cc3=O)C3(CCCC3)C2)[C@H](c2ccc(F)c(F)c2)C1 please. < 10 nM

For Full-length USP19 (Homo sapiens, UniProt O94966), provide IC50 of Cc1ccccc1-c1cc(=O)n(C[C@@H]2CCN(C(=O)N3CC[C@@H](N)C[C@H]3c3ccccc3)CC23CCCC3)cn1 please. < 10 nM

For Full-length USP19 (Homo sapiens, UniProt O94966), provide IC50 of COc1ccccc1-c1ccn(C[C@@H]2CCN(C(=O)N3CC[C@@H](N)C[C@H]3c3cc(F)ccc3F)CC23CCCC3)c(=O)c1 please. < 10 nM

For Full-length USP19 (Homo sapiens, UniProt O94966), provide IC50 of N[C@@H]1CCN(C(=O)N2CCC(Cn3cnc4ccc(F)cc4c3=O)C3(CCCC3)C2)[C@H](c2ccccc2)C1 (stereo partly shown) please. < 10 nM

For Full-length USP19 (Homo sapiens, UniProt O94966), provide IC50 of N[C@@H]1CCN(C(=O)N2CCC(Cn3cnccc3=O)C3(CCCC3)C2)[C@H](c2ccccc2)C1 (stereo partly shown) please. 100 to 1000 nM

For Full-length USP19 (Homo sapiens, UniProt O94966), provide IC50 of N[C@@H]1CCN(C(=O)N2CC[C@@H](Cn3cnc(-c4ccccc4)cc3=O)C3(CCCC3)C2)[C@H](c2ccccc2)C1 please. < 10 nM

Now let's try a different one.
For Full-length USP19 (Homo sapiens, UniProt O94966), provide IC50 of O=C(N1CC[C@@H](Cn2ccc(-c3ccccc3)cc2=O)C2(CCCC2)C1)N1CC[C@@H](NC2(CF)COC2)C[C@H]1c1ccccc1 please. 10 to 100 nM
